Source: PubChem BioAssay AID1902

- targetSystem: S. pyogenes SKKanGAS, kanamycin survival, BacTiterGlo, 6 h
- assay: S. pyogenes SKKanGAS kanamycin growth inhibitors – SKKanGAS strain, luminescence, dose confirmation, streptokinase promoter inhibitor project, dose response (AID 1902);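 note: lower survival reflects blocked streptokinase promoter driving kanamycin resistance gene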
Active and inactive are the calls of the source.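 Rule for the calls: active = EC50 no more than a set limit of log units above the highest dose; inactive = the rest.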
reportedProperty: EC50

So what's the measured EC50 for this one? COc1ccc(NC(=S)NC(NC(=O)c2ccc(Cl)cc2Cl)C(Cl)(Cl)Cl)c([N+](=O)[O-])c1 (stereo not drawn)
1.15 µM

So what's the measured EC50 for this one? Cc1ccc(S(=O)(=O)N2CCCCC2)cc1NC(=O)CN1C(=O)CN(C)C1=O
> 15 µM (inactive)

So what's the measured EC50 for this one? Oc1ccc(CN2CCN(c3ccccc3)CC2)c2cccnc12
3.76 µM

So what's the measured EC50 for this one? O=C(CSc1nc(N2CCOCC2)nc(N2CCOCC2)n1)Nc1cccc(C(F)(F)F)c1
> 15 µM (inactive)

So what's the measured EC50 for this one? Cc1cc(C)c2nc(N3C(=O)C(O)=C(C(=O)c4ccco4)C3c3ccco3)sc2c1 (stereo not drawn)
2.12 µM

So what's the measured EC50 for this one? CCc1ccc(-c2cc(C)no2)cc1S(=O)(=O)Nc1cccc(CN2CCCC2)c1
> 15 µM (inactive)

So what's the measured EC50 for this one? CCOC(=O)c1cnc(-n2nc(C)cc2C)nc1NCc1ccccc1
4.14 µM

So what's the measured EC50 for this one? COc1cccc(Nc2c3c(nc4c(-c5ccccc5)c(C)nn24)CCC3)c1
1.8 µM

So what's the measured EC50 for this one? O=C(/C=C/c1cccc(Cl)c1)c1ccc([N+](=O)[O-])o1
2.23 µM

So what's the measured EC50 for this one? COc1ccc(C(=O)O)cc1NC(=S)NC(=O)c1ccc(-c2ccc(Cl)cc2)o1
2.3 µM

So what's the measured EC50 for this one? O=C(Nc1ccccc1C(=O)Nc1nnc(C(F)(F)F)s1)c1ccccc1Cl
1.34 µM

So what's the measured EC50 for this one? N#C/C(=N\Nc1ccc(Cl)cc1)C(N)=S
> 15 µM (inactive)

So what's the measured EC50 for this one? CN1C(=O)/C(=C/c2cccn2-c2ccc3ccccc3c2)C(=O)NC1=S
5.74 µM

So what's the measured EC50 for this one? CN(C)CCNC=C(C(=O)Nc1ccc(Cl)cc1Cl)C(=O)Nc1ccc(Cl)cc1Cl
3.38 µM

So what's the measured EC50 for this one? Oc1cccc2ccc(/C=C/c3cccs3)nc12
2.91 µM

So what's the measured EC50 for this one? Cc1ccc(NS(=O)(=O)c2ccc(C3CCCCC3)cc2)cc1
4.32 µM

So what's the measured EC50 for this one? O=C(Nc1ccccc1N1CCCC1)c1ccc2c(c1)OCO2
> 15 µM (inactive)

So what's the measured EC50 for this one? O=C(/C=C/c1ccc(F)cc1)NC(=S)NNC(=O)c1cnccn1
1.96 µM

So what's the measured EC50 for this one? CCCCn1c(=O)c(C(=O)Nc2ccccn2)c(O)c2ccccc21
5.09 µM

So what's the measured EC50 for this one? CCCCCCc1cc2cc(C(=O)OCC)c(=O)oc2cc1O
5.46 µM

So what's the measured EC50 for this one? Cc1cccc(NC(=S)Nc2ccc(Cl)c(Cl)c2)c1
9.6 µM

So what's the measured EC50 for this one? [O-][n+]1cccc2c(Br)cc(Br)c(O)c21
0.55 µM

So what's the measured EC50 for this one? Nc1ccc(N=Nc2ccccc2)c2ccccc12
6.71 µM
